experiment: Human HepG2 cell viability assay in 384 well format; type: toxicity, cell-based; parameters: dose 125 nL, time 70.5 hour; concentration not given beside the values; details: HepG2 cells, read-out: Inhibition
Can you tell me cytotoxicity at 70.5 h for the items I'm about to list?
Phrase the answer as number then unit, nothing more needed.

## Task Value lookup for cytotoxicity at 70.5 h; key = CSc1ncnc(NCc2ccccc2F)c1C#N
## Result 23.1%

## Task Entry COc1ccccc1OCC(=O)NCC(O)(c1cccs1)C1CC1 (stereo unspecified) has what cytotoxicity at 70.5 h?
## Result -5.23%

## Task Field request: cytotoxicity at 70.5 h | item: Cc1ccccc1CN(C)C(C(N)=O)c1ccccc1 (stereo unspecified)
## Result -16.6%

## Task Give its cytotoxicity at 70.5 h value. Item: Cc1nccn1-c1cc(CNC(=O)COCC2CC2)ccn1
## Result -6.02%

## Task Recorded cytotoxicity at 70.5 h of O=C(NCCN1CCCCC1=O)C1CCC(=O)N(C2CCCC2)C1 (stereo unspecified) , please.
## Result -3.21%

## Task Returns the measured cytotoxicity at 70.5 h for the input molecule. Input: CC(C)c1nnsc1CNC(=O)C1CCN(C(=O)C2CC2)CC1
## Result 2.6%

## Task Which cytotoxicity at 70.5 h is reported for this molecule? O=C1N(CCO)CCCC12CCN(Cc1noc(C3CCCC3)n1)C2 (stereo unspecified)
## Result 5.43%

## Task Quick one: cytotoxicity at 70.5 h for COCC(=O)N1CCCC(c2nc(N(C)C)ncc2-c2ccccc2)C1 (stereo unspecified) ?
## Result 4.41%

## Task Can you look up the measured cytotoxicity at 70.5 h of CC(C)OCCCN(Cc1ccncc1)Cc1cccc(F)c1F for me?
## Result 22.3%

## Task Item CS(=O)(=O)NC[C@@H]1OC[C@H]2CN(C(=O)c3cnccn3)CC[C@H]21 has what recorded cytotoxicity at 70.5 h?
## Result -1.54%

## Task Sample CS(=O)(=O)c1cncnc1C1CCCNC1 (stereo unspecified) — what was its cytotoxicity at 70.5 h?
## Result -8.78%

## Task Look at this molecule and give its reported cytotoxicity at 70.5 h. Cc1nccc(C2CN(Cc3ccc(-c4ccccc4C(=O)O)o3)C2)n1
## Result -2.56%

## Task Record request: cytotoxicity at 70.5 h value, item COCC(=O)NCc1cc2n(n1)CCCN(CCCC1CCCC1)C2
## Result -2.24%

## Task # query: cytotoxicity at 70.5 h of entry CN(C)CCCNC(=O)c1cc(Br)c2c(c1)OCCO2
## Result -7.25%

## Task Name the reported cytotoxicity at 70.5 h value associated with the molecule CNc1nc(CNC(=O)Nc2cccc(CN(C)C)c2)cs1
## Result 0.614%

## Task Suppose we examine the molecule CC(C)(C)N1CC(C(=O)N2CC(Oc3ccc(F)cc3)C2)CC1=O (stereo unspecified) ; what cytotoxicity at 70.5 h value has been reported?
## Result 18.6%

## Task // lookup cytotoxicity at 70.5 h for CNC(=O)Cc1noc(Cc2cccc(Br)c2)n1
## Result -9.45%

## Task Which cytotoxicity at 70.5 h reading was recorded for the molecule CC(=O)c1ccc(-n2c(C)cn(CCS(C)(=O)=O)c2=O)cc1 ?
## Result -11.2%

## Task I am curious: what cytotoxicity at 70.5 h value has been reported for Cc1c[nH]c(CN2CCC3(CCCN(Cc4ccc(F)c(F)c4)C3)C2)n1 (stereo unspecified) ?
## Result 0.269%

## Task # query: cytotoxicity at 70.5 h of entry O=C(C1CN(c2ncc(F)cn2)CC12CCOCC2)N1CCOCC1 (stereo unspecified)
## Result -9.96%

## Task Field request: cytotoxicity at 70.5 h | item: Cc1nc(CN2CCC3(CCN(Cc4nccn4C)CC3)C2=O)cs1
## Result -7.58%

## Task Report cytotoxicity at 70.5 h for Cc1ccc(-c2c[nH]c([C@@H]3COCCN3Cc3cccnc3)n2)cc1 please.
## Result 14.4%

## Task Given CCCNC(c1ccc(F)cc1)c1cccnc1 (stereo unspecified) , state its recorded cytotoxicity at 70.5 h.
## Result -19.4%

## Task What value of measured cytotoxicity at 70.5 h is listed for CS(=O)(=O)Cc1ccc(C(=O)NC2CCc3nccn3C2)o1 (stereo unspecified) ?
## Result -6.33%

## Task GET /values?readout=cytotoxicity at 70.5 h&item= Cc1nnc(NC(=O)CN2CCCC2c2noc(C3CC3)n2)s1 (stereo unspecified)
## Result 21.8%

## Task For the molecule COc1ccc(F)cc1C(=O)N1CCCC(n2nc(C)nc2C)C1 (stereo unspecified) , what cytotoxicity at 70.5 h is on record?
## Result -9.24%

## Task Quick check: cytotoxicity at 70.5 h of Cn1nnnc1SCC(=O)N1CCN(C(=O)C2CC2c2cccs2)CC1 (stereo unspecified) ?
## Result 1.49%

## Task Would you mind telling me what cytotoxicity at 70.5 h value was observed for Cc1ccccc1-c1cncc(C2CCN(C3CCOCC3)CC2)n1 ?
## Result 1%

## Task Can you look up the measured cytotoxicity at 70.5 h of Cc1cccc(COC2COC3(CCN(Cc4ccoc4)CC3)C2)n1 (stereo unspecified) for me?
## Result -16.1%

## Task Look up cytotoxicity at 70.5 h for this molecule: COc1ncccc1CN1C[C@H]2CCN(c3ccc(C)nn3)C[C@H]2C1
## Result 20%

## Task What value of cytotoxicity at 70.5 h has been recorded for this entry: CCN(Cc1cnc(NCc2ccccc2)nc1)C1CCS(=O)(=O)C1 (stereo unspecified)
## Result -7.52%

## Task Please give the measured cytotoxicity at 70.5 h for this molecule: CCC(C)N(Cc1ccsc1)C(=O)c1ccc2[nH]nnc2c1 (stereo unspecified)
## Result 24.9%

## Task Which cytotoxicity at 70.5 h reading was recorded for the molecule COc1ccc(CNC(C)c2cccc(Br)c2)c(OC)c1OC (stereo unspecified) ?
## Result 17.6%

## Task Item under review: OC(CNc1nc(C2CCCC2)nc2c1CCNCC2)C(F)(F)F (stereo unspecified) . Reported cytotoxicity at 70.5 h?
## Result -7.87%

## Task Any idea what its cytotoxicity at 70.5 h is? The molecule is CC1CCN(C(=O)C(C)N2CCN(c3nccs3)CC2)CC1 (stereo unspecified)
## Result -7%

## Task What does the record list as cytotoxicity at 70.5 h for CC(C)(CNC(=O)OC(C)(C)C)NC(=O)C1CC(=O)N(C2CC2)C1 (stereo unspecified) ?
## Result 13.1%

## Task Sample CC(C)C(=O)N1CCN(C(=O)c2cscn2)[C@H]2CS(=O)(=O)C[C@H]21 — what was its cytotoxicity at 70.5 h?
## Result -2.25%

## Task Fill in the blank: the reported cytotoxicity at 70.5 h of CCSc1ncc(Cl)c(C(=O)NC(CCSC)C(=O)O)n1 (stereo unspecified) is ____.
## Result -7.9%

## Task Data request, read-out cytotoxicity at 70.5 h, for FC(F)(F)c1ccc(CN2CCN(Cc3cscn3)CC2)cc1
## Result -12.5%

## Task Consider the molecule shown here: Cc1ccc(OCCCNC(=O)C2(C)CC(=O)N3C=CC=CC3=N2)cc1 (stereo unspecified) What is its recorded cytotoxicity at 70.5 h?
## Result -3.61%

## Task Would you kindly share the measured cytotoxicity at 70.5 h for Cc1ccc(CNC(=O)Nc2cc(C(F)(F)F)c[nH]c2=O)cn1 ?
## Result -0.26%

* * *

test: Human HepG2 cell viability assay in 384 well format; format: toxicity, cell-based; design: dose 125 nL, time 70.5 hour; concentration not given beside the values; conditions: HepG2 cells, read-out: Inhibition
Readout: cytotoxicity at 70.5 h (%)
Give a bare numeral; the unit % is implied.

## Task Field request: cytotoxicity at 70.5 h | item: O=C(CC1OCCc2ccccc21)NCC1(O)CCCCC1 (centres undefined)
## Result -2.94

## Task Any idea what its cytotoxicity at 70.5 h is? The compound is Cn1cc(C2CC(=O)NC23CCN(Cc2ccncc2)CC3)cn1 (centres undefined)
## Result 13.9

## Task // returns reported cytotoxicity at 70.5 h for input Cc1ccc(N2CCCN(C(=O)c3n[nH]c4c3CCC4)CC2)nn1
## Result 1.32

## Task // returns reported cytotoxicity at 70.5 h for input Cc1noc(C)c1CN1CCC2(CC1)NC(=O)CC2c1ccccc1 (centres undefined)
## Result 2.78

## Task Reported cytotoxicity at 70.5 h, compound CCOC(=O)[C@]12CCCN(Cc3ccco3)C[C@H]1CN(CCN(C)C)C2 : ____
## Result -8.65

## Task Any idea what its cytotoxicity at 70.5 h is? The compound is Cc1ccc(NC2CCN(C(=O)Cc3c(C)noc3C)CC2)nn1
## Result -2.99

## Task Given C1CCN(CCO[C@@H]2CC[C@H]3[C@H]2OCCN3CC2CCOCC2)C1 , state its recorded cytotoxicity at 70.5 h.
## Result -120

## Task Using the record for CNC(=O)CNC(=O)CC1C(=O)NCCN1Cc1ccccc1C (centres undefined) , report its cytotoxicity at 70.5 h.
## Result -5.79

## Task I'd like to know its cytotoxicity at 70.5 h. The compound in question is O=C(O)c1cc(-c2cc[nH]n2)cc(S(=O)(=O)N2CCCCCC2)c1
## Result -4.16

## Task # input compound: O=C(Nc1ccc(CC(=O)N2CCSCC2)cc1)NC1CC1 ; wanted: its cytotoxicity at 70.5 h
## Result 14.5

## Task State the recorded cytotoxicity at 70.5 h for this entry: CCNC(=O)N1CCc2ccc(NC(=O)NCc3ccsc3)cc21
## Result 9.35

## Task Sample COCCNC(=O)N1CCCC1COc1ccccc1 (centres undefined) — what was its cytotoxicity at 70.5 h?
## Result -8.27

## Task Any idea what its cytotoxicity at 70.5 h is? The compound is CCOC[C@@H]1CC[C@H]2[C@H](CCN2C(=O)c2ccncc2F)O1
## Result -1.37

## Task Entry under review: CN(C)c1cc(CNC(=O)Nc2nccs2)ccn1 . Reported cytotoxicity at 70.5 h?
## Result -1.57

## Task Would you kindly share the measured cytotoxicity at 70.5 h for Cc1cnn(CC(C)NCc2ccncc2)c1 (centres undefined) ?
## Result 0.737

## Task What value of cytotoxicity at 70.5 h has been reported for the following compound? CC(OCC1CC1)C(=O)Nc1cccc(C(=O)Nc2ccccn2)c1 (centres undefined)
## Result -8.38

## Task Query (compound): CO[C@@H]1CCN(C(=O)c2ccccn2)[C@H]1Cc1ccccc1 ; field requested: cytotoxicity at 70.5 h
## Result -16.2

## Task Using the record for CCn1ncc2c1C(COCC1CC1)N(Cc1nccs1)CC2 (centres undefined) , report its cytotoxicity at 70.5 h.
## Result -0.956

## Task For the compound Cc1nc[nH]c1CN1CCCn2nc(CN3CCC(F)(F)CC3)cc2C1 , what cytotoxicity at 70.5 h is on record?
## Result -9.44

## Task Given the compound CC1CCc2nc(O)c(C(=O)NCc3ccccn3)cc2C1 (centres undefined) , what is its reported cytotoxicity at 70.5 h?
## Result -5.86

## Task Fill in: cytotoxicity at 70.5 h of COC(=O)CC1C(=O)NCCN1c1nc2c(s1)c(C)nn2C (centres undefined) is ___
## Result 5.02

## Task // cytotoxicity at 70.5 h lookup, key: Cc1ccc(NC(=O)NC(C)C(=O)N2CCS(=O)(=O)CC2)cc1 (centres undefined)
## Result -7.48

## Task Which measured cytotoxicity at 70.5 h value corresponds to COC1CCCN(C(=O)NCc2ccc(C(=O)N(C)C(C)C)cc2)C1 (centres undefined) ?
## Result 25.2

## Task # input compound: CC(C)c1nccn1C1CCCN(C(=O)c2ccn(C)c(=O)c2)C1 (centres undefined) ; wanted: its cytotoxicity at 70.5 h
## Result -4.13

## Task Fill in: cytotoxicity at 70.5 h of O=C(Cc1cccs1)N1CCn2cc(Cn3cccn3)nc2C1 is ___
## Result -13.4

## Task What cytotoxicity at 70.5 h value was documented for this compound, O=C1CC[C@H]2[C@H](CCN2C(=O)N2CCCC2)N1Cc1ccncc1 ?
## Result 50.7

## Task Request the reported cytotoxicity at 70.5 h associated with Cc1ccccc1-n1ncc(C(=O)N2CCCC2c2cnn(C)c2)c1C (centres undefined)
## Result -13.6

## Task Entry CCc1nc(C)cn1C(=O)Nc1ccc(F)cc1 has what cytotoxicity at 70.5 h?
## Result 5.48

## Task Please report the recorded cytotoxicity at 70.5 h for O=C(c1ncoc1C1CCCO1)N1CC2(CCCC2)c2ccccc21 (centres undefined) .
## Result -6.29

## Task Which value of cytotoxicity at 70.5 h has been reported for CNC(=O)N1CCN(C(=O)N(C)C)CC2(CC(=O)N(C)C2)C1 (centres undefined) in the records?
## Result -20

## Task I would be grateful if you could share the reported cytotoxicity at 70.5 h for COCC(=O)N1CCN(S(=O)(=O)c2ccccc2)[C@H]2CS(=O)(=O)C[C@H]21 .
## Result -7.41

## Task Any idea what its cytotoxicity at 70.5 h is? The compound is Cc1cccc(O[C@H]2COCCN(Cc3sc(C)nc3C)C2)n1
## Result 10.9

## Task Which cytotoxicity at 70.5 h reading was recorded for the compound O=C(Nc1cc(F)ccc1OCC1CCCO1)N1CCSCC1 (centres undefined) ?
## Result 0.0557

## Task Data request, read-out cytotoxicity at 70.5 h, for CC(C)Sc1ncccc1C(=O)NCc1cccc(N(C)C)c1
## Result 0.244
